- assayed_target: chemokine receptor CXCR7 (UniProt P25106 1-362, limits assumed)
- Sequence (P25106 whole entry): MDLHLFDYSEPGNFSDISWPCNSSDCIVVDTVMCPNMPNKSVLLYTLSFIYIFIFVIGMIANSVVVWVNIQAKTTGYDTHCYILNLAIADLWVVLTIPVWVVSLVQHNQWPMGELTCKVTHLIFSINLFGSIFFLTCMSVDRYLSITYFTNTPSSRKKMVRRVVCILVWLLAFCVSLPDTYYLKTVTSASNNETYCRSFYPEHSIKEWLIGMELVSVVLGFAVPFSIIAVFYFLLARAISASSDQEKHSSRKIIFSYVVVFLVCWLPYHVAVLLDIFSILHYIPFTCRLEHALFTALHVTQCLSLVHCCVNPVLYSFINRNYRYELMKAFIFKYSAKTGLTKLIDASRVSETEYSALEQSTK
- test_name: cell-based or functional assay
Square brackets hold non-standard residues; d marks the D form. dPro(cis-4-NH2) = N[C@H]1CN[C@@H](C(=O)O)C1; Tic = O=C(O)[C@@H]1Cc2ccccc2CN1; Orn(A56) = not defined here
measurement_kind: β-Arrestin EC50 (nM)
Respond numerically; units are nM and should not be typed.

Reference set (2 entries):
cyclo([Orn(A56)][dF]WR[dPro(cis-4-NH2)][Tic]) (reading uncertain; also: printed as cyclo(-Orn(A56)-^DPhe-Trp-Arg-^DPro((4R)NH2)-Tic-)) [cyclo(-Orn(A56)-^DPhe-Trp-Arg-^DPro((4R)NH2)-Tic-)]: 181
cyclo(T[dR]WR[dP]T) (SMILES C[C@@H](O)[C@@H]1NC(=O)[C@H]([C@@H](C)O)NC(=O)[C@H]2CCCN2C(=O)[C@H](CCCNC(=N)N)NC(=O)[C@H](Cc2c[nH]c3ccccc23)NC(=O)[C@@H](CCCNC(=N)N)NC1=O) [cyclo(-Thr-^DArg-Trp-Arg-^DPro-Thr-)]: 17.2

Prompt: Look at this binder and give its reported β-Arrestin EC50. cyclo(I[dK]RW[dP]T) (SMILES CC[C@H](C)[C@@H]1NC(=O)[C@H]([C@@H](C)O)NC(=O)[C@H]2CCCN2C(=O)[C@H](Cc2c[nH]c3ccccc23)NC(=O)[C@H](CCCNC(=N)N)NC(=O)[C@@H](CCCCN)NC1=O) [cyclo(-Ile-^DLys-Arg-Trp-^DPro-Thr-)]
Completion: 86.7
